# system: T1, human PD-L1 (human, UniProt Q9NZQ7 19-239, limits assumed)
# T1 construct: also called Hu PD-L1; hPD-L1
# T1 sequence (Q9NZQ7 19-239 limits assumed): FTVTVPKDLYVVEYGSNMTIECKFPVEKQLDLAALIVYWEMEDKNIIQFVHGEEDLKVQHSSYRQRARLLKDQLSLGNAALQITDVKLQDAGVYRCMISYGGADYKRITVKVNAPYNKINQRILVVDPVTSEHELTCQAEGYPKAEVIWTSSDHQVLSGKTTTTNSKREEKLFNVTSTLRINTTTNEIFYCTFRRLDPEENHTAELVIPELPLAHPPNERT
# assay-remarks: cell binding assay, inhibition of Hu PD-L1/PD-1 binding
pIC50: −log10 of the molar value. Positions of bridges follow the written chain, without caps; N, C: chain ends. Non-standard residues stand in square brackets, D forms with d. NMeNle = CCCC[C@H](NC)C(=O)O; NMeA = CN[C@@H](C)C(=O)O; Sar = CNCC(=O)O
metric-name: pIC50

[
  {
    "binder": "{CH2CO}-F[NMeA]NPHL[Sar]WSW[NMeNle][NMeNle]ACG-NH2 (thioether N-14; SMILES CCCC[C@H]1C(=O)N(C)[C@@H](CCCC)C(=O)N[C@@H](C)C(=O)N[C@H](C(=O)NCC(N)=O)CSCC(=O)N[C@@H](Cc2ccccc2)C(=O)N(C)[C@@H](C)C(=O)N[C@@H](CC(N)=O)C(=O)N2CCC[C@H]2C(=O)N[C@@H](Cc2c[nH]cn2)C(=O)N[C@@H](CC(C)C)C(=O)N(C)CC(=O)N[C@@H](Cc2c[nH]c3ccccc23)C(=O)N[C@@H](CO)C(=O)N[C@@H](Cc2c[nH]c3ccccc23)C(=O)N1C, macrocyclic peptide, Formula I series; also called Compound 22) [Compound No. 22]",
    "recorded-measurement": 7.55
  },
  {
    "binder": "{CH2CO}-F[NMeA]NPHL[NMeA]WSW[NMeNle][NMeNle]RCG-NH2 (thioether N-14; SMILES CCCC[C@H]1C(=O)N(C)[C@@H](CCCC)C(=O)N[C@@H](CCCNC(=N)N)C(=O)N[C@H](C(=O)NCC(N)=O)CSCC(=O)N[C@@H](Cc2ccccc2)C(=O)N(C)[C@@H](C)C(=O)N[C@@H](CC(N)=O)C(=O)N2CCC[C@H]2C(=O)N[C@@H](Cc2c[nH]cn2)C(=O)N[C@@H](CC(C)C)C(=O)N(C)[C@@H](C)C(=O)N[C@@H](Cc2c[nH]c3ccccc23)C(=O)N[C@@H](CO)C(=O)N[C@@H](Cc2c[nH]c3ccccc23)C(=O)N1C, macrocyclic peptide, Formula I series; also called Compound 13) [Compound No. 13]",
    "recorded-measurement": 7.46
  }
]

// provenance: patent US20140294898A1
